System: Streptococcus agalactiae
Test: Minimum inhibitory concentration against Streptococcus agalactiae
Type: functional
Where a SMILES comes first, the peptide text is derived from it. [ ]: non-standard residue; d: D form. Pra = C#CC[C@H](N)C(=O)O
Readout kind: log10 of MIC (log10 of the value in µg/mL)
Response schema: value (number) is log10 of MIC in units of µg/mL.

These recorded examples may help you get a feel for the data.
N[C@@H](CCl)C(=O)N[C@@H](CCl)C(=O)O.O=C(O)C(F)(F)F	-0.41
C#CC[C@H](NC(=O)[C@H](C)N)C(=O)O.O=C(O)C(F)(F)F	2.00
N[C@H](CCl)C(=O)O	1.10
C[C@H](N)C(=O)N[C@@H](CCl)C(=O)O.O=C(O)C(F)(F)F	-0.70
CCC[C@H](N)C(=O)N[C@@H](CCl)C(=O)O.O=C(O)C(F)(F)F	-0.70

Please fill in: log10 of MIC reported for C#CC[C@H](NC(=O)[C@@H](N)CC#C)C(=O)O.O=C(O)C(F)(F)F (H-[Pra]-[Pra]-OH) = 0.49
